B1: FUNDC2 (parent)
chain: YIKVDWQRVEKDMKKAKEQLKIRK

Variants of: B1
testSummary: protein stability index of a GFP-peptide fusion (GPS, HEK-293T) (PSI 1-6); higher = more stable;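 further: lentivirally expressed fusions sorted by FACS into six bins by GFP to DsRed ratio, PSI derived from sequencing read proportions per bin multiplied by bin number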
runParameters: c terminus: a fixed tail appended
outcomeMeasure: protein stability index

{"mutationString": "I2S", "numericReadout": 3.37}
{"mutationString": "D5A", "numericReadout": 3.55}
{"mutationString": "V4R", "numericReadout": 2.74}
{"mutationString": "K21D", "numericReadout": 1.86}
{"mutationString": "V9H", "numericReadout": 1.61}
{"mutationString": "K3R", "numericReadout": 2.18}
{"mutationString": "I2C", "numericReadout": 1.93}
{"mutationString": "K14Q", "numericReadout": 1.72}
{"mutationString": "K17R", "numericReadout": 2.27}
{"mutationString": "K21T", "numericReadout": 1.87}
{"mutationString": "M13W", "numericReadout": 2.29}
{"mutationString": "K15F", "numericReadout": 1.42}
{"mutationString": "R8C", "numericReadout": 1.04}
{"mutationString": "I22S", "numericReadout": 2.01}
{"mutationString": "L20F", "numericReadout": 4.29}
{"mutationString": "K24V", "numericReadout": 2.61}
{"mutationString": "A16H", "numericReadout": 2.4}
{"mutationString": "A16V", "numericReadout": 1.38}
{"mutationString": "V4E", "numericReadout": 1.81}
{"mutationString": "W6E", "numericReadout": 2.91}
{"mutationString": "Q19H", "numericReadout": 1.33}
{"mutationString": "V9L", "numericReadout": 2.04}
{"mutationString": "K11Y", "numericReadout": 1.55}
{"mutationString": "L20E", "numericReadout": 2.4}
{"mutationString": "V9A", "numericReadout": 1.5}
{"mutationString": "I2R", "numericReadout": 2.53}
{"mutationString": "E10A", "numericReadout": 1.92}
{"mutationString": "E18V", "numericReadout": 1.69}
{"mutationString": "L20H", "numericReadout": 1.71}
{"mutationString": "K21N", "numericReadout": 1.91}
{"mutationString": "L20M", "numericReadout": 1.32}

The values you see were collected from the supplement of paper PMC10567573.
